# subject_of_test: CCAAT/enhancer-binding protein beta (Homo sapiens) (UniProt P17676)
# Sequence (P17676 whole entry, looked up): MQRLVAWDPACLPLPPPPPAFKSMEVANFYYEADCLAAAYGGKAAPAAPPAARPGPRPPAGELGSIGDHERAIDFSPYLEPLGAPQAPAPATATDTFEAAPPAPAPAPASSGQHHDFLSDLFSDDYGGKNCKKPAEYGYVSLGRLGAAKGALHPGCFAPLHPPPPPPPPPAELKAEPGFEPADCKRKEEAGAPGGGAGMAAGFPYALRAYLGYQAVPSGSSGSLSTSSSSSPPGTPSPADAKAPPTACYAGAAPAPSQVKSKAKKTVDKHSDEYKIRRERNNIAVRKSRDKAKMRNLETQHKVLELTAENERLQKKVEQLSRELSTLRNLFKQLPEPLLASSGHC
# test_details: ATG_C_EBP_CIS: Attagene CIS-FACTORIAL HepG2 Assay for human CCAAT/Enhancer Binding Protein (C/EBP) beta (AID 2282927)
# setup_conditions: HepG2 Attagene cis-factorial transcription factor reporter; actives raise or lower the signal
The source made the active and inactive calls. Rule for the calls: active = hit-call score of the fitted dose curve at least 0.9, where 1 is the maximum; inactive = score below 0.9.
measure: outcome

Below, each entry is followed by its recorded outcome result.
compound	subject_of_test	outcome
N#CSCSc1nc2ccccc2s1	CCAAT/enhancer-binding protein beta (Homo sapiens) (UniProt P17676)	inactive
CCCCCCC(C)OC(=O)COc1nc(F)c(Cl)c(N)c1Cl (stereo unspecified)	CCAAT/enhancer-binding protein beta (Homo sapiens) (UniProt P17676)	inactive
COC(=O)c1ccc(CNS(C)(=O)=O)cc1S(=O)(=O)NC(=O)Nc1nc(OC)cc(OC)n1	CCAAT/enhancer-binding protein beta (Homo sapiens) (UniProt P17676)	inactive
CCC(C)OC(=O)N1CCCCC1CCO (stereo unspecified)	CCAAT/enhancer-binding protein beta (Homo sapiens) (UniProt P17676)	inactive
COC(=O)c1ccc(I)cc1S(=O)(=O)NC(=O)Nc1nc(C)nc(OC)n1	CCAAT/enhancer-binding protein beta (Homo sapiens) (UniProt P17676)	inactive
CCC(O)=C1C(=O)CC(C(=O)O)CC1=O (stereo unspecified)	CCAAT/enhancer-binding protein beta (Homo sapiens) (UniProt P17676)	inactive
C[C@]12C[C@H](O)[C@H]3[C@@H](CCC4=CC(=O)CC[C@@]43C)[C@@H]1CC[C@@H]2C(=O)CO	CCAAT/enhancer-binding protein beta (Homo sapiens) (UniProt P17676)	inactive
CCCCC(CC)CN1C(=O)C2C3C=CC(C3)C2C1=O (stereo unspecified)	CCAAT/enhancer-binding protein beta (Homo sapiens) (UniProt P17676)	inactive

stdin: Look up outcome: CN(C)C(=O)Nc1ccc(Cl)c(Cl)c1
stdout: inactive

stdin: Look up outcome: N[C@@H](Cc1cc(I)c(Oc2ccc(O)c(I)c2)c(I)c1)C(=O)O
stdout: inactive

stdin: Look up outcome: C#CCOC(=O)[C@@H](C)Oc1ccc(Oc2ncc(Cl)cc2F)cc1
stdout: inactive
